# Tested on: Caenorhabditis elegans N2
# test_name: AC50 for larval growth inhibition (Hill fit); higher = less potent
# stated_conditions: exposure time 48 h
endpoint: AC50 for larval growth inhibition (µM)

• CCC(C)(C)c1ccc(O)c(C(C)(C)CC)c1 [Phenol, 2,4-bis(1,1-dimethylpropyl)-] = 175
• CCNS(=O)(=O)C(F)(F)C(F)(F)C(F)(F)C(F)(F)C(F)(F)C(F)(F)C(F)(F)C(F)(F)F [Sulfluramid] = 31.4
• CCCCCCc1ccc(O)cc1O [4-Hexylresorcinol] = 181
• CN(C)c1nc(=O)n(C2CCCCC2)c(=O)n1C [Hexazinone] = 109
• CCCCCCCCN(C)CCCCCCCC [N-Methyldioctylamine] = 182
• C=CCc1ccc2c(c1)OCO2 [Safrole] = 188
• CC(=O)[O][Hg][c]1ccccc1 [Phenylmercuric acetate] = 1.02
• CC(C)C(=O)Nc1ccc([N+](=O)[O-])c(C(F)(F)F)c1 [Flutamide] = 112
• CN1CCN(c2ccccc2/C=C2\SCCN(c3ccc(Cl)c(Cl)c3)C2=O)CC1 [Elzasonan] = 62.7
• CCCCN(CCCC)SN(C)C(=O)Oc1cccc2c1OC(C)(C)C2 [Carbosulfan] = 60.2
• CC(C)(c1ccccc1)c1ccc(O)cc1 [4-Cumylphenol] = 110
• Brc1ccc(Oc2ccccc2)cc1 [p-Bromodiphenyl-ether] = 52.5
